Experimental target: UniProt:P55072
Sequence (P55072 2-806 limits assumed): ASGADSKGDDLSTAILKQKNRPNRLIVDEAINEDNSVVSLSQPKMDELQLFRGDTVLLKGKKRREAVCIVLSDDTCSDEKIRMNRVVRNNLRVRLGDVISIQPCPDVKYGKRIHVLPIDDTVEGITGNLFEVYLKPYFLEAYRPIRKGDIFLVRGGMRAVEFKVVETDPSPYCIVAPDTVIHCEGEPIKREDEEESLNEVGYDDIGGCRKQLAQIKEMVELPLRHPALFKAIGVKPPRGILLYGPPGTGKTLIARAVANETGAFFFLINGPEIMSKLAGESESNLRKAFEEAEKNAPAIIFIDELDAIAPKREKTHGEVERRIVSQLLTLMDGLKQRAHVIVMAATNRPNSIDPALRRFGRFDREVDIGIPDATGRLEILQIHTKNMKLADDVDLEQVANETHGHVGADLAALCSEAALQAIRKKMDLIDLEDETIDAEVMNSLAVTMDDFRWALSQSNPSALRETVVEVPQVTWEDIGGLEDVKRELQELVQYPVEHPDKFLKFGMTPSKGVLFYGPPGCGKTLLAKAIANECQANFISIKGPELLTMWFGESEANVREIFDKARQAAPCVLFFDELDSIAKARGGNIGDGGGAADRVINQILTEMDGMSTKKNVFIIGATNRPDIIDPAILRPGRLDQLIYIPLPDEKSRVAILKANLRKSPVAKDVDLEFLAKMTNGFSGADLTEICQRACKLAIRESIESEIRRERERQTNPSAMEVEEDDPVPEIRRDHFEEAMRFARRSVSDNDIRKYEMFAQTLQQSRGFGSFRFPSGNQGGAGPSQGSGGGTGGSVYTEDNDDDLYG
Test name: p97 ATPase assay (Kinase Glo Plus; biomol green for compounds that interfere with luciferase)
Assay type: biochemical
Condition details: purified p97, ATP, 60 min room temperature; mean +/- standard error
Recorded IC50 by entry
Respond with the bare value in µM.

Fc1ccc(CNc2nc(Nc3cccc(Cl)c3)nc3ccccc23)cc1 [III-3]
1.5
Cc1cccc(-c2nc(NCc3ccc(F)cc3)c3ccccc3n2)c1 [I-24]
15
COc1cccc2c(NCc3ccccc3O)nc(N3CCOc4ccccc43)nc12 [XII-8]
4.6
Cc1c(F)cccc1Nc1nc(NCc2ccccc2)c2ccccc2n1 [V-2]
0.9
Clc1cccc(CNc2nc(NCc3ccccc3)c3ccccc3n2)c1 [IV-12]
2.7

Could you share which IC50 value was measured for COc1cccc2c(NCc3ccc(F)cc3)nc(N3CCOc4ccccc43)nc12 [XII-4] ? 1.9

Could you share which IC50 value was measured for COc1ccc2c(NCc3ccccc3)nc(NCc3ccccc3)nc2c1 [VI-13] ? 5.7

Could you share which IC50 value was measured for Cc1ccccc1CNc1nc(NCc2ccccc2)c2ccccc2n1 [IV-6] ? 2.7

Could you share which IC50 value was measured for COc1ccc(CNc2nc(NCc3ccccc3)c3ccccc3n2)cc1 [IV-5] ? 3

Could you share which IC50 value was measured for COc1c(Cl)cccc1Nc1nc(NCc2ccccc2)c2ccccc2n1 [V-1] ? 0.9

Could you share which IC50 value was measured for Brc1ccc(CNc2nc(NCc3ccccc3)c3ccccc3n2)cc1 [IV-4] ? 4.3

Could you share which IC50 value was measured for COc1cccc2c(NCc3ccccc3)nc(Nc3cc(C)cc(F)c3)nc12 [XI-18] ? 1.5

Could you share which IC50 value was measured for COc1cccc2c(NCc3ccc(O)cc3)nc(N3CCOc4ccccc43)nc12 [XII-10] ? 2.4

Could you share which IC50 value was measured for COc1cccc2c(NCc3ccccn3)nc(N3CCOc4ccccc43)nc12 [XII-7] ? 19

Could you share which IC50 value was measured for COc1cccc(Nc2nc(NCc3ccccc3)c3ccccc3n2)c1 [II-16] ? 2.5

Could you share which IC50 value was measured for Brc1ccccc1CNc1nc(NCc2ccccc2)c2ccccc2n1 [IV-9] ? 2

Could you share which IC50 value was measured for Clc1cccc(Nc2nc(NCc3cccc(Br)c3)c3ccccc3n2)c1 [III-14] ? 3.7

Could you share which IC50 value was measured for COc1cccc2c(NCc3ccccc3)nc(Nc3nc4ccccc4s3)nc12 [XI-5] ? 0.5

Could you share which IC50 value was measured for Brc1ccc(Nc2nc(NCc3ccccc3)c3ccccc3n2)cc1 [II-5] ? 1.8

Could you share which IC50 value was measured for Cc1ccccc1CNc1nc(Nc2cccc(Cl)c2)nc2ccccc12 [III-6] ? 4.2

Could you share which IC50 value was measured for N#CC(C(=O)COC(=O)CCC(=O)c1ccc2c(c1)OCCO2)=C1Nc2ccccc2N1 [XVIII] ? 10

###

Tested on: p97-dependent Ub^G76V-GFP degradation in HeLa cells
Test name: Ub^G76V-GFP degradation (turn-over) assay
Format: cell-based, human
Condition details: Homo sapiens, HeLa, read-out: IC50 (μM) Ub^G76V-GFP turn over, p97-dependent Ub^G76V-GFP degradation turn-over assay
Recorded IC50 by entry
Respond with the bare value in µM.

Below, 3 compounds whose answers are already recorded.
COc1cccc2c(N3CCOc4ccccc43)nc(N3CCOc4ccccc43)nc12
8.1
Clc1cccc(Nc2nc(Nc3ccccc3)c3ccccc3n2)c1
12
CC(Nc1nc(-c2ccccc2)nc2ccccc12)c1ccccc1 (centres unmarked)
13

Could you share which IC50 value was measured for c1ccc(CNc2nc(N3CCOCC3)nc3ccccc23)cc1 ? 36

Could you share which IC50 value was measured for COc1cccc2c(NCc3cccc(N(C)C)c3)nc(N3CCOc4ccccc43)nc12 ? 19

Could you share which IC50 value was measured for COc1cccc2c(NCc3ccccc3)nc(N3CCN(C)CC3)nc12 ? 45

Could you share which IC50 value was measured for Brc1ccccc1Nc1nc(NCc2ccccc2)c2ccccc2n1 ? 13

Could you share which IC50 value was measured for CC(Nc1nc(-c2ccccc2F)nc2ccccc12)c1ccccc1 (centres unmarked) ? 15

Could you share which IC50 value was measured for COc1ccc(Nc2nc(N3CCN(c4ccc([N+](=O)[O-])cc4)CC3)nc3ccccc23)c(OC)c1 ? 70

Could you share which IC50 value was measured for CN(Cc1ccccc1)c1nc(-c2ccccc2[N+](=O)[O-])nc2ccccc12 ? 11

Data origin: patent US20110288082A1
